FYI, the data here is from patent US20110306636A1.

# experimental.system: UniProt P21453
# protocol.text: 35S-GTPγS binding assay, S1P1 membranes
# setup.conditions: membranes from CHO cells expressing S1P1; read-out: S1P1/GTPG EC50
Structures can show the parent of a compound that is named as a salt.
// assign true (1) if EC50 falls strictly below 10 nM, else false (0) (ties count as false (0))

Field: example entries. Status: answers known.
INSERT INTO results (compound, cat) VALUES
  ('COCc1cc(-c2nc(-c3ccnc(NCCC(=O)O)c3)no2)ccc1-c1ccccc1C [Example 7, hydrochloride salt]', 'true (1)'),
  ('COCc1cc(-c2nc(-c3cnc(N)cn3)no2)ccc1-c1ccccc1C [Example 16]', 'false (0)'),
  ('COCc1cc(-c2nc(-c3ccnc(N)c3)no2)ccc1-c1ccccc1C [Example 15, hydrochloride salt]', 'true (1)'),
  ('COCCNc1ncc(-c2noc(-c3ccc(-c4ccccc4C)c(COC)c3)n2)cc1Cl [Example 34]', 'false (0)'),
  ('COCc1cc(-c2nc(-c3cnc(N)nc3)no2)ccc1-c1ccccc1C [Example 17]', 'false (0)');

Just wondering, is EC50 of COCc1cc(-c2nc(-c3ccc(OC)nc3)no2)ccc1-c1ccccc1C [Example 23] below 10 nM?
false (0)

Threshold test, EC50 < 10 nM: COCc1cc(-c2nc(-c3ccc(N)nc3)no2)ccc1-c1ccccc1Cl [Example 32]
true (1)

Is the reported EC50 for COCc1cc(-c2nc(-c3ccc(N)nc3)no2)ccc1-c1ccccc1C [Example 4, hydrochloride salt] strictly below 10 nM?
true (1)

###

Exercise: state measured melting point for each of the compounds provided.

Below are worked cases with known answers.
INSERT INTO assay_data (compound, result) VALUES
  ('COCc1cc(-c2nc(-c3cnc(N)c(Cl)c3)no2)ccc1-c1ccccc1Cl [Example 47]', '182 to 184 °C'),
  ('COCc1cc(-c2nc(-c3cnc(N)c(C)c3)no2)ccc1-c1ccccc1Cl [Example 76]', '143 to 145 °C'),
  ('CCOc1cc(-c2nc(-c3cnc(N)c(C)c3)no2)ccc1-c1ccccc1C(F)(F)F [Example 77]', '163 to 165 °C');

Then this compound:
Please look up its melting point: COCc1cc(-c2nc(-c3cnc(N)c(C)c3)no2)ccc1-c1ccccc1F [Example 79]
162 to 164 °C

###

# experimental.system: S1P1 (Homo sapiens, UniProt P21453)
# Sequence (P21453 whole entry, species assumed): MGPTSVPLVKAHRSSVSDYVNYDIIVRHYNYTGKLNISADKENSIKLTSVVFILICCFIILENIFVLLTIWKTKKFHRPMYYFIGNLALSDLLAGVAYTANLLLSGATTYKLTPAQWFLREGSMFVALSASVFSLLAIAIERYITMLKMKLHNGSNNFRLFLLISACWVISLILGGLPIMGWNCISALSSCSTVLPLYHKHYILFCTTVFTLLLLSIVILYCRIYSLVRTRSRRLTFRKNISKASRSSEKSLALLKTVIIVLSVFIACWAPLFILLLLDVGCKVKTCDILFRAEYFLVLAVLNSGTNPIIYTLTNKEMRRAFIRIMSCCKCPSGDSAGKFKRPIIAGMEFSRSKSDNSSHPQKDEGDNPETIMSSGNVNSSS
# protocol.text: Receptor binding assay, [33P]sphingosine 1-phosphate competition, S1P1
# setup.conditions: 96 well-plate; read-out: S1P1 binding IC50 (M) (96 well-plate)
Counter-ions that a name gives are not always drawn.
measurement.label: IC50

Please review the entries below; each comes with its answer.
INSERT INTO assay_data (compound, experimental_system, result) VALUES
  ('COCc1cc(-c2nc(-c3cnc(NCCC(=O)O)c(Cl)c3)no2)ccc1-c1ccccc1Cl [Example 50, hydrochloride salt]', 'S1P1 (Homo sapiens, UniProt P21453)', '1.58e-09 M'),
  ('CCOc1cc(-c2nc(-c3cnc(NCCC(=O)O)c(Cl)c3)no2)ccc1-c1ccccc1C [Example 65, hydrochloride salt]', 'S1P1 (Homo sapiens, UniProt P21453)', '2.07e-09 M'),
  ('COCc1cc(-c2nc(-c3ccc(NCCO)nc3)no2)ccc1-c1ccccc1C', 'S1P1 (Homo sapiens, UniProt P21453)', '4.54e-09 M');

// for each compound in input: emit IC50
1. COCc1cc(-c2nc(-c3ccc(Cl)nc3)no2)ccc1-c1ccccc1C
2. CC1CCCCN1c1ccc(-c2nc(-c3ccc(N)nc3)no2)cc1C(F)(F)F (centres unmarked)
3. COCc1cc(-c2nc(-c3cnc(N)c(Cl)c3)no2)ccc1N1CCCCC1C (centres unmarked)
4. COCc1cc(-c2nc(-c3cnc(NCCCO)c(Cl)c3)no2)ccc1-c1ccccc1C
5. COCc1cc(-c2nc(-c3ccc(NCCO)nc3)no2)ccc1-c1ccccc1Cl

1: 5.49e-08 M; 2: 1.03e-08 M; 3: 2.89e-09 M; 4: 2.9e-09 M; 5: 3.71e-09 M

###

# experimental.system: UniProt P21453
# protocol.text: Internalization of S1P1 in S1P1-U2OS cells by cell imaging analysis
# setup.conditions: 1 hour incubation, 384-well
Counter-ions that a name gives are not always drawn.
measurement.label: pEC50
Numbers only, as −log10 of the molar value.

See these solved cases before continuing.
INSERT INTO assay_data (molecule, measurement_label, numeric_readout) VALUES
  ('COCc1cc(-c2nc(-c3ccc(NCC(C)O)nc3)no2)ccc1-c1ccccc1C (stereo not drawn)', 'pEC50', 7.25),
  ('CCOc1cc(-c2nc(-c3cnc(N)c(C)c3)no2)ccc1-c1ccccc1C(F)(F)F', 'pEC50', 7.13),
  ('Cc1ccccc1-c1ccc(-c2nc(-c3cnc(NCCC(=O)O)c(Cl)c3)no2)cc1C [Example 73, hydrochloride salt]', 'pEC50', 6.76),
  ('COCc1cc(-c2nc(-c3ccc(N)nc3)no2)ccc1-c1ccccc1C [Example 4, hydrochloride salt]', 'pEC50', 7.49),
  ('COCc1cc(-c2nc(-c3ccnc(CN(C)CC(=O)O)c3)no2)ccc1-c1ccccc1C', 'pEC50', 7.98);

Batch of 7 molecules: report pEC50 for each.
1. COCc1cc(-c2nc(-c3cnc(NCCCC(=O)O)c(C)c3)no2)ccc1-c1ccccc1C [Example 57, hydrochloride salt]
2. COCc1cc(-c2nc(-c3cnc(NCCC(=O)O)c(C)c3)no2)ccc1-c1ccccc1F [Example 53, hydrochloride salt]
3. CC1CCCCN1c1ccc(-c2nc(-c3ccnc(CN(C)CC(=O)O)c3)no2)cc1C(F)(F)F (stereo not drawn)
4. COCc1cc(-c2nc(-c3cnc(N)c(Cl)c3)no2)ccc1N1CCCCC1C (stereo not drawn)
5. COCc1cc(-c2nc(-c3cnc(NCCC(=O)O)c(Cl)c3)no2)ccc1-c1ccccc1F [Example 48, hydrochloride salt]
6. COCc1cc(-c2nc(-c3ccnc(N)c3)no2)ccc1-c1ccccc1C [Example 15, hydrochloride salt]
7. CCOc1cc(-c2nc(-c3cnc(NCCC(=O)O)c(Cl)c3)no2)ccc1-c1ccccc1C(F)(F)F [Example 71, hydrochloride salt]

[7.09, 7.00, 7.84, 7.32, 7.54, 8.22, 7.67]

Provide the reported pEC50 of each entry below, same order.
1. COCc1cc(-c2nc(-c3cnc(NCCC(=O)O)c(Cl)c3)no2)ccc1-c1cccc(F)c1C [Example 72, hydrochloride salt]
2. COCc1cc(-c2nc(-c3cnc(NCCC(=O)O)c(C)c3)no2)ccc1-c1ccccc1C [Example 58, hydrochloride salt]

7.63
7.34

Quick one: pEC50 for COCc1cc(-c2nc(-c3cnc(NCCCC(=O)O)c(Cl)c3)no2)ccc1-c1ccccc1F [Example 54, hydrochloride salt] ?
7.79

###

# experimental.system: human S1P1 Receptor fused to the green fluorescent protein (EGFP) (Homo sapiens, UniProt P21453)
# Sequence (P21453 with tags, fused parts or gaps): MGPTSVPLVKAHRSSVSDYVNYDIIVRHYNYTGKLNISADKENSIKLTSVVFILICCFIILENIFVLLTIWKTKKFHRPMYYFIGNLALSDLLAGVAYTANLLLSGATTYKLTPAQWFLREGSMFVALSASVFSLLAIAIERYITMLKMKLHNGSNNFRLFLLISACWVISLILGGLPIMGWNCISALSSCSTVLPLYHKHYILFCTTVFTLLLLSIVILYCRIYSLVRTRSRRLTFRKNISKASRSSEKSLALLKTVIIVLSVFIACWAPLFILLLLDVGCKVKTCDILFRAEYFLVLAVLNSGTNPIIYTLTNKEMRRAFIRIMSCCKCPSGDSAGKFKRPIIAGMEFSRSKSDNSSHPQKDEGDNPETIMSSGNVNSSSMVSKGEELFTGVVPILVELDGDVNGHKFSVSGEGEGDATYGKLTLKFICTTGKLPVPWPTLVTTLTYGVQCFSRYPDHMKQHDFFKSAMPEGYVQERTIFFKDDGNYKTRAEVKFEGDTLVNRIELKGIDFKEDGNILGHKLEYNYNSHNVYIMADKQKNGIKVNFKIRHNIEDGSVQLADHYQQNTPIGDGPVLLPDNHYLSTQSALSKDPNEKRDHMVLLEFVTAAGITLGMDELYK
# protocol.text: Internalization of S1P1 in S1P1-U2OS cells by cell imaging analysis
# setup.conditions: 1 hour incubation, 384-well
Counter-ions that a name gives are not always drawn.
measurement.label: EC50 (nM)
Give bare numbers, in nM.

Illustrative cases are given below, each with its answer.
INSERT INTO assay_data (compound, numeric_readout) VALUES
  ('COCc1cc(-c2nc(-c3ccnc(CNCC(=O)O)c3)no2)ccc1-c1ccccc1C', 9.2),
  ('COCc1cc(-c2nc(-c3cnc(N)c(Cl)c3)no2)ccc1-c1ccccc1F', 59.3),
  ('Cc1cc(-c2nc(-c3ccnc(CN(C)CC(=O)O)c3)no2)ccc1-c1ccccc1C(F)(F)F', 93.6);

Value sought for every listed compound: EC50.
1. COCc1cc(-c2nc(-c3ccc(N)nc3)no2)ccc1-c1ccccc1F
2. COCc1cc(-c2nc(-c3ccc(NCC(O)CO)nc3)no2)ccc1-c1ccccc1C (stereo not shown) [Example 45, hydrochloride salt]
3. CCc1ccccc1-c1ccc(-c2nc(-c3cnc(N)c(Cl)c3)no2)cc1COC
4. O=C(O)CCNc1ncc(-c2noc(-c3ccc(-c4ccccc4F)c(C(F)(F)F)c3)n2)cc1Cl
5. COCc1cc(-c2nc(-c3cnc(NCCC(=O)O)c(Cl)c3)no2)ccc1-c1ccccc1Cl [Example 50, hydrochloride salt]
6. CC1CCCCN1c1ccc(-c2nc(-c3ccnc(CN(C)CCC(=O)O)c3)no2)cc1C(F)(F)F (stereo not shown)
7. COCc1cc(-c2nc(-c3ccc(N)nc3)no2)ccc1-c1ccccc1Cl

23.1
22.4
33.5
50
17.3
14.2
38.8

Here are 2 compounds. What values of EC50 were reported for them?
1. Cc1ccccc1-c1ccc(-c2nc(-c3ccc(CN(C)CC(=O)O)nc3)no2)cc1C(F)(F)F
2. COCc1cc(-c2nc(-c3cnc(NCCCC(=O)O)c(Cl)c3)no2)ccc1-c1ccccc1C [Example 56, hydrochloride salt]

1: 17.9; 2: 40.3

I have 4 compounds here; please give me EC50 for each one.
1. Cc1cc(-c2nc(-c3ccc(CN(C)CC(=O)O)nc3)no2)ccc1-c1ccccc1C(F)(F)F
2. COCc1cc(-c2nc(-c3cnc(N)c(Cl)c3)no2)ccc1-c1ccccc1C
3. COCc1cc(-c2nc(-c3cnc(N)c(C)c3)no2)ccc1-c1ccccc1C [Example 18, hydrochloride salt]
4. COCc1cc(-c2nc(-c3ccc(Cl)nc3)no2)ccc1-c1ccccc1C

1. 170
2. 44.9
3. 49.4
4. 307
